- Procedure details: modulators of CIT2-GFP expression in yeast, confirmation, S. cerevisiae, GFP fusion, cherry picks, mother/daughter gates (AID 2274)
- Recorded conditions: S. cerevisiae CIT2-GFP strain, flow cytometry, 3 h; measured here: daughter cell gate; at 10 µM; stronger effect = higher value
Endpoint label: GFP response, % of DMSO (%)
Response body: numeric value in %, unit text excluded.

>  <Mol>
Cc1nc(Sc2ccccc2)c(C#N)c(C)c1[N+](=O)[O-]

>  <GFP response, % of DMSO / %>
117

$$$$
>  <Mol>
CCc1ccc2c(c1)/C(=C/C(=O)c1cccs1)C(=O)N2

>  <GFP response, % of DMSO / %>
91.5

$$$$
>  <Mol>
C=CCNC(=S)N/N=C(\C)c1cccc(OC)c1

>  <GFP response, % of DMSO / %>
96.4

$$$$
>  <Mol>
COc1ccccc1OCC(=O)Sc1ccc(C)cc1

>  <GFP response, % of DMSO / %>
99.3

$$$$
>  <Mol>
O=C(O)CCc1ccc(-c2ccc(Cl)cc2)o1

>  <GFP response, % of DMSO / %>
88.4

$$$$
>  <Mol>
CCOC(=O)c1cnn(-c2cc(C)nc3c(-c4ccccc4)cnn23)c1N

>  <GFP response, % of DMSO / %>
97.6

$$$$
>  <Mol>
Cc1cc(C)c2sc(NC(=O)C3=COCCO3)nc2c1

>  <GFP response, % of DMSO / %>
104

$$$$
>  <Mol>
N/C(Cc1ccc(Cl)cc1)=N\OC(=O)c1cccc2ccccc12

>  <GFP response, % of DMSO / %>
97.4

$$$$
>  <Mol>
CCCCNC(=O)c1ccc2c(SCC(=O)O)c3c(nc2c1)CCCC3

>  <GFP response, % of DMSO / %>
98.3

$$$$
>  <Mol>
O=C(c1cccc2ccccc12)N1CCN(c2ccccc2F)CC1

>  <GFP response, % of DMSO / %>
92

$$$$

Per the record, `COC(=O)c1ccc(Sc2ccccn2)c([N+](=O)[O-])c1` has GFP response, % of DMSO of 105

----------
- Procedure details: modulators of MEP2-GFP levels in yeast, confirmation, S. cerevisiae, flow cytometry GFP, cherry picks (AID 2272);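 further: ratio of well signal to plate DMSO mean so 100% equals DMSO level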
- Recorded conditions: S. cerevisiae MEP2-GFP strain, 3 h, at 10 µM, stronger effect = higher value
Endpoint label: GFP response vs DMSO (%)
The response must be a number in % with no trailing unit.

>  <Molecule>
Cc1ccc(C2=NOC(=O)/C2=C\c2ccc(C)o2)cc1

>  <Output unit>
%

>  <Observed measurement>
110

$$$$

# molecule COCCN1C2=C(COC(C)(C)C2)C(=S)NC1c1ccccc1 (centres undefined) ; its GFP response vs DMSO = 107

Measured GFP response vs DMSO of `COc1cccc(NC(=O)/C=C/c2ccc([N+](=O)[O-])cc2)c1` : 109

Reported GFP response vs DMSO ( `O=C(COC(=O)/C=C/c1cccs1)Nc1nc(-c2cccc(Br)c2)cs1` ) = 100

----------
- Procedure details: modulators of CIT2-GFP expression in yeast, confirmation, S. cerevisiae, GFP fusion, cherry picks, mother/daughter gates (AID 2274)
- Recorded conditions: S. cerevisiae CIT2-GFP strain, flow cytometry, 3 h; measured here: daughter cell gate; at 10 µM; stronger effect = higher value
Quick reference for GFP response, % of DMSO among some compounds
// units = %; emit number, no label

# annotated cases, reported GFP response, % of DMSO shown
>  <Compound>
Cn1cnnc1SCC(=O)Nc1nc(-c2ccc(F)cc2)cs1

>  <GFP response, % of DMSO (%)>
103

$$$$
>  <Compound>
CCC(=O)Oc1oc(-c2ccccc2)nc1C=Nc1ccccc1OC

>  <GFP response, % of DMSO (%)>
86.9

$$$$
>  <Compound>
Cc1ccc2c(c1)c1c(c(=O)n(-c3ccccc3C)c(=O)n1CC(=O)NCC1CCCO1)n2C (stereo not given)

>  <GFP response, % of DMSO (%)>
103

$$$$
>  <Compound>
COc1ccccc1-c1noc(-c2cccnc2)n1

>  <GFP response, % of DMSO (%)>
88.7

$$$$
>  <Compound>
O=C1CC(SCc2nc3ccccc3[nH]2)C(=O)N1c1cccc(F)c1 (stereo not given)

>  <GFP response, % of DMSO (%)>
103

$$$$
>  <Compound>
Nc1cccnc1S(=O)(=O)c1ccccc1

>  <GFP response, % of DMSO (%)>
99.7

$$$$
>  <Compound>
Oc1cccc(/C=N/c2c(-c3ccco3)nc3ccccn23)c1

>  <GFP response, % of DMSO (%)>
98.3

$$$$
>  <Compound>
Brc1cc(Br)c2nc(-c3cccs3)ccc2c1

>  <GFP response, % of DMSO (%)>
97.4

$$$$
>  <Compound>
CCOc1ccc(S(=O)(=O)N2CCc3ccccc3C2)cc1

>  <GFP response, % of DMSO (%)>
92.7

$$$$
>  <Compound>
CC(=O)NC1(C(F)(F)F)C(=O)Nc2c1c(=O)[nH]c(=O)n2CCc1ccccc1 (stereo not given)

>  <GFP response, % of DMSO (%)>
90.2

$$$$

get_value(item= `Nc1c(C(=O)c2cccs2)sc2nsc(SCCN3CCCCC3)c12` , readout=GFP response, % of DMSO) returns 149

The measured GFP response, % of DMSO associated with `CC(=O)N(\C=C/C=C/C=C1\Sc2ccccc2C1=O)c1ccccc1` reads 128

----------
- Procedure details: inhibitors of fungal efflux pumps CDR1, CDR2, MDR1, pilot screen, validation compound set, multiplex, phenotypic (AID 588506);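 further: Nile Red retained in cells so higher fluorescence means more efflux inhibition; 0 = negative control wells and 1 = enniatin B 25 µM full block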
- Recorded conditions: S. cerevisiae pump-expressing triplex, Nile Red efflux flow cytometry; at 10 µM; stronger effect = higher value; the pumps come from Candida albicans
Each entry below lists one item and its recorded efflux inhibition (fraction of control) value.
Give a plain numeric answer without units written out.

>  <Compound>
COc1ccc(CN(C)CCc2ccccn2)cc1OC

>  <Observed measurement>
-0.03

$$$$

# ---- query compound ----
Form: compound = `CCNC(=O)c1sc2cc(C)ccc2c1Cl` ; efflux inhibition (fraction of control) = -0.16

----------
- Tgt: AP-2 complex subunit beta (Homo sapiens) (UniProt P63010)
- Sequence (P63010 whole entry, looked up, one chain of several): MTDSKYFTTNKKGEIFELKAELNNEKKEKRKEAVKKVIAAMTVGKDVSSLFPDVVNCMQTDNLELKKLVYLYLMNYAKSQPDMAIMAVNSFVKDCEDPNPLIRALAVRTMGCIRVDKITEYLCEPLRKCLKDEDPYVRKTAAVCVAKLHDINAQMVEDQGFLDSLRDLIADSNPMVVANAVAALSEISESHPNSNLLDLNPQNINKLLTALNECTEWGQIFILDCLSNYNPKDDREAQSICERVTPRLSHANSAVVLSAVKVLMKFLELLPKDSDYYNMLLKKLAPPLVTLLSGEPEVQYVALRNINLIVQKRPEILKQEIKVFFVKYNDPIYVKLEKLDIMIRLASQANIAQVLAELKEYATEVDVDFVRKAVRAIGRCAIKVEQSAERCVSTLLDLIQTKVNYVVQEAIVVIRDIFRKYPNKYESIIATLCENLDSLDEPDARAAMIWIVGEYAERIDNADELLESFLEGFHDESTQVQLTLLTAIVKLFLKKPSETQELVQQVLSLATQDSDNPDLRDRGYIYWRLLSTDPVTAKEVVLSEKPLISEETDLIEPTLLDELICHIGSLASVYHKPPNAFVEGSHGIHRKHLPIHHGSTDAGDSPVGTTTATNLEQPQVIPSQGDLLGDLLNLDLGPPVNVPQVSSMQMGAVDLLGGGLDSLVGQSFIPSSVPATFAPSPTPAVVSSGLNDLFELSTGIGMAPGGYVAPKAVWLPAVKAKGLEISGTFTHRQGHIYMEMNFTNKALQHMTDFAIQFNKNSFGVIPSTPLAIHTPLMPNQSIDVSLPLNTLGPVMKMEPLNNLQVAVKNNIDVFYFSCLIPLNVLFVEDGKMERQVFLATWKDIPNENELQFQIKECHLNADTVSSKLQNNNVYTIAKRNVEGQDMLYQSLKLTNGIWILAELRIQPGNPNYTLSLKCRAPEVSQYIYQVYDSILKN
- Procedure details: inhibitors of arrestin peptide binding to AP2, pilot screen, biochemical, validation set, GST-AP2 beads, flow cytometry (AID 504541);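 further: AP2 carries R879A mutation and is captured from E. coli lysate; bead-bound FITC arrestin peptide fluorescence measuring arrestin peptide binding to AP2; 0% = DMSO wells and 100% = excess unlabeled arrestin peptide control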
- Recorded conditions: FITC arrestin peptide, at 10 µM, stronger effect = higher value, AP2 beta2 appendage fragment, R879A mutant
A collection of molecules and their measured inhibition
Return type: number; implicit unit %.

Below: 2 molecules and their reported inhibition.
>  <Molecule>
COC(=O)c1ccc(=O)n(Cc2ccco2)c1

>  <Endpoint label>
inhibition

>  <Observed measurement>
-1.44

$$$$
>  <Molecule>
O=C(c1cc2cc(Br)ccc2o1)N1CCCCC1

>  <Endpoint label>
inhibition

>  <Observed measurement>
-1.81

$$$$

Moving on to the next molecule.
AP-2 complex subunit beta (Homo sapiens) (UniProt P63010) assay, molecule `O=C(COc1ccccc1)N1CCN(c2ccccc2)CC1` , recorded inhibition = 5.07

----------
GFP response relative to DMSO values, listed per item
- Procedure details: LAP4-GFP expression modulators in yeast, confirmation, cell-based, cherry picks, flow cytometry, mother/daughter gates (AID 2271);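 further: ratio of sample to DMSO plate mean so 100% equals DMSO level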
- Recorded conditions: S. cerevisiae LAP4-GFP strain, 3 h, measured here: mother cell gate response, at 10 µM, stronger effect = higher value, 100 means same as DMSO control
Unit % implied. Number only.

Reference set, count: 6
>  <Compound>
CCOC(=O)/C(=C\c1cn(C)c2ccccc12)[N+](=O)[O-]

>  <GFP response relative to DMSO [%]>
202

$$$$
>  <Compound>
Cc1nn(Cc2ccc([N+](=O)[O-])cc2)c(=O)n1-c1cccc(Cl)c1

>  <GFP response relative to DMSO [%]>
96.1

$$$$
>  <Compound>
O=C1CC(Sc2nnnn2C2CCCCC2)C(=O)N1c1ccccc1 (configuration not stated)

>  <GFP response relative to DMSO [%]>
107

$$$$
>  <Compound>
Cc1cc(=O)n(-c2ccc3ccccc3n2)[nH]1

>  <GFP response relative to DMSO [%]>
116

$$$$
>  <Compound>
N/C(=N\OC(=O)c1cc(Br)ccc1Cl)c1ccccn1

>  <GFP response relative to DMSO [%]>
135

$$$$
>  <Compound>
Cc1cc(NC(=O)c2cc3ccccc3o2)ccc1NC(=O)c1ccccc1

>  <GFP response relative to DMSO [%]>
96.1

$$$$

GFP response relative to DMSO reading for `CC(=O)Nc1ccc(-c2csc(NC(=O)c3ccc(C)o3)n2)cc1` : 98.3

Summary for this compound, `c1ccc(CSc2ccc(-c3ccccn3)nn2)cc1` : GFP response relative to DMSO is 106

// recorded GFP response relative to DMSO for O=C1CC(Sc2nnc(-c3ccccc3)o2)C(=O)N1c1ccccc1 (configuration not stated) : 107

`CCOC(=O)Cc1csc(NC(=O)CSc2nnc(-c3ccc(C)cc3)o2)n1` yielded GFP response relative to DMSO of 101

So, `COc1cccc2c1Oc1ncccc1N(C(=O)CCC(=O)NCc1cccc(C)c1)C2` ? Its GFP response relative to DMSO was 98.3

Lab note: measured GFP response relative to DMSO of `CCCS(=O)(=O)N1CCC(C(=O)c2cccc(C(F)(F)F)c2)CC1` was 102
